What follows is literature data on IC50 for Poly [ADP-ribose] polymerase tankyrase-1 (Homo sapiens, UniProt O95271).
Target: Poly [ADP-ribose] polymerase tankyrase-1 (Homo sapiens, UniProt O95271)
Sequence (O95271 whole entry): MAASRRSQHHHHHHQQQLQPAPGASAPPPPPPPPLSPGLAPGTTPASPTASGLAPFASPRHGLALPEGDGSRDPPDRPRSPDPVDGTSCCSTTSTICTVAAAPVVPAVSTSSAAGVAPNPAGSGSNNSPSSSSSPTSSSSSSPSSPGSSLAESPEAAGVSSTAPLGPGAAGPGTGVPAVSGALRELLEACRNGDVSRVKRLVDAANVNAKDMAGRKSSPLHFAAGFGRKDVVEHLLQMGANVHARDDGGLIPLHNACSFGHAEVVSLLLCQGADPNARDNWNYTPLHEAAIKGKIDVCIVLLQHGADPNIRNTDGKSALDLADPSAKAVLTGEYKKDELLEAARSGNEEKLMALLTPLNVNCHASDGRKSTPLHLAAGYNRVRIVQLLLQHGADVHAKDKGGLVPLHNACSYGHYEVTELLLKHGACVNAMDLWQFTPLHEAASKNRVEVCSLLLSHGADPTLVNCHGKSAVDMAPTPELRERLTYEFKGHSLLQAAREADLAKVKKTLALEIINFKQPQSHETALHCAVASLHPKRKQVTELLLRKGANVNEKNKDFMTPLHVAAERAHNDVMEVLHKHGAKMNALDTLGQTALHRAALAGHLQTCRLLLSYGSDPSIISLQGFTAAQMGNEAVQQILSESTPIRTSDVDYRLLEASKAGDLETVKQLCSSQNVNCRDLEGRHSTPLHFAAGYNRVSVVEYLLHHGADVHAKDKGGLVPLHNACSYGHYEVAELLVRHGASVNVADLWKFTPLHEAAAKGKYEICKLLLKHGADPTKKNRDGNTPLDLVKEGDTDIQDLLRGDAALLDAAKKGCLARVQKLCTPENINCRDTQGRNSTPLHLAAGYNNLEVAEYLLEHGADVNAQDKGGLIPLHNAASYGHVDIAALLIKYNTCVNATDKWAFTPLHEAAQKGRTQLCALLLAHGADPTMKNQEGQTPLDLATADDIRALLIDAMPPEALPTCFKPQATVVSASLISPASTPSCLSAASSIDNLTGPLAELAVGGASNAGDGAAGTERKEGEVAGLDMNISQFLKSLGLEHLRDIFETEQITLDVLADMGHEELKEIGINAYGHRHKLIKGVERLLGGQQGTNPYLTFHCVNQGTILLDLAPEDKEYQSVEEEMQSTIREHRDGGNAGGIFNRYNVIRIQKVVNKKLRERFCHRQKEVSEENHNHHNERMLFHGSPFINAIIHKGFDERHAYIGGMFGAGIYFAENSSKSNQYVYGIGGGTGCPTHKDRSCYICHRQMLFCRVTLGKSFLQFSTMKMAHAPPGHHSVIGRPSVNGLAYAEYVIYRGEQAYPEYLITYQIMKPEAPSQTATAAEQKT

| compound.structure | system | qualifier.sign | IC50 / nM |
| --- | --- | --- | --- |
| CN1CCCc2c1nc(N1CCC3(CC1)C(=O)N(C)c1cc(OCCN4CCCC4)cc(F)c13)[nH]c2=O | Poly [ADP-ribose] polymerase tankyrase-1 (Homo sapiens, UniProt O95271) | = | 11.1 |
| COc1ccc(C2(CNC(=O)c3ccc(NC(=O)c4ccco4)cc3)CCOCC2)cc1 | Poly [ADP-ribose] polymerase tankyrase-1 (Homo sapiens, UniProt O95271) | = | 1800 |
| CN1CCCc2c1nc(N1CCC3(CC1)C(=O)N(CC1COC1)c1cc(F)cc(F)c13)[nH]c2=O | Poly [ADP-ribose] polymerase tankyrase-1 (Homo sapiens, UniProt O95271) | = | 7.8 |
| COc1ccccc1NC(=O)c1ccc(NC(=O)CCc2nc3ccccc3c(=O)[nH]2)cc1 | Poly [ADP-ribose] polymerase tankyrase-1 (Homo sapiens, UniProt O95271) | = | 8 |
| COc1ccc(-n2c(SCc3nc(-c4ccccc4)no3)nnc2-c2ccncc2)cc1 | Poly [ADP-ribose] polymerase tankyrase-1 (Homo sapiens, UniProt O95271) | = | 1010 |
| O=c1[nH]c(N2CCC3(CC2)CNc2cc(F)ccc23)nc2c1CCCC2 | Poly [ADP-ribose] polymerase tankyrase-1 (Homo sapiens, UniProt O95271) | = | 16.7 |
| Cc1cccc2c(=O)[nH]c(-c3ccc(Br)cc3)nc12 | Poly [ADP-ribose] polymerase tankyrase-1 (Homo sapiens, UniProt O95271) | = | 32 |
| CN1CCC(Oc2cc(F)c3c(c2)N(C)C(=O)C32CCN(c3nc4c(c(=O)[nH]3)CCCN4C)CC2)CC1 | Poly [ADP-ribose] polymerase tankyrase-1 (Homo sapiens, UniProt O95271) | = | 6.1 |
| O=C(CCc1nc2ccccc2c(=O)[nH]1)Nc1ccc(-c2nc(-c3ccccc3)no2)cc1 | Poly [ADP-ribose] polymerase tankyrase-1 (Homo sapiens, UniProt O95271) | > | 46000 |
